For each record, write down the corresponding Classification.
biological target: GST-BAI-1 Associated Protein PDZ domain 2 (Mus musculus (Mouse)), Q6RHR9; assay: G' assay; further: key of the grades not given here
Sequence (Q6RHR9 455-558): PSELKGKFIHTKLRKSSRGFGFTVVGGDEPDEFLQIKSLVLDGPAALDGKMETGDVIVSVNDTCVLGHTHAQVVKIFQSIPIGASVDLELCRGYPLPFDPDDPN
Give bare numbers, in A450 class.

Check out these entries, answers already filled in.
1) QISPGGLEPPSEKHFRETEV (modifications not checked) [TAX] :: 5
2) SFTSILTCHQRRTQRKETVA (modifications not checked) [GluR5-2 (rat)] :: 5
3) QDFRRAFRRILARPWTQTAW (modifications not checked) [alpha-2B Adrenergic receptor] :: 4
4) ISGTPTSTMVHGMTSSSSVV (modifications not checked) [Clasp-2] :: 1

Would you mind listing Classification for each of the following binders?
1. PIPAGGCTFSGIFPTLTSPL (modifications not checked) [KIA 1481]
2. AWDDSARAAGGQGLHVTAL (modifications not checked) [LPAP]
3. ARHRVTSYTSSSVNVSSNL (modifications not checked) [IL-8RA]
4. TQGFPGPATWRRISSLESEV (modifications not checked) [NMDA Glutamate Receptor 2C (cysteine-free)]
5. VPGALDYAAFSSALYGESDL (modifications not checked) [a-actinin 2]
6. RDSFHRSSFRKAETQLSQGS (modifications not checked) [Clasp-5]
7. RNIEEVYVGGKQVVPFSSSV (modifications not checked) [Nedasin (s-form)]
8. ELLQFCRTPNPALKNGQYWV (modifications not checked) [CSPG4 (chondroitin sulfae proteoglycan 4, melanoma-associated)]

## Output
[2, 2, 1, 4, 1, 1, 1, 2]
